# ASSAY INFO: Cytotoxicity (CC50) in G 1a replicon cells
# Assay type: cell-based
# TEST PARAMETERS: HCV G 1a replicon cells
Consider the following compounds; for each one, report its CC50.
Give bare numbers, in µM.

COMPOUND	ENDPOINT LABEL	VALUE REPORTED
COC(=O)N[C@H](C(=O)N1[C@@H](C)CC[C@H]1c1nc(-c2ccc(-c3ccc(-c4c[nH]c([C@@H]5CC[C@H](C)N5C(=O)[C@@H](NC(=O)OC)[C@H]5C[C@@H](C)O[C@@H](C)C5)n4)cc3)cc2)c[nH]1)[C@@H]1C[C@@H](C)O[C@@H](C)C1 [Example-1]	CC50	8.46

Task item: Provide CC50 value for the following compound: COC(=O)N[C@H](C(=O)N1[C@@H](C)CC[C@H]1c1nc(-c2ccc(-c3ccc(-c4c[nH]c([C@@H]5CC[C@H](C)N5C(=O)[C@@H](NC(=O)OC)C5C[C@@H](C)O[C@H](C)C5)n4)c(F)c3)cc2)c[nH]1)C1C[C@@H](C)O[C@H](C)C1 (some centres unmarked) [Example-4]
Reply: 7.75

----------
# ASSAY INFO: IV and PO single dose pharmacokinetic studies in rat
# Format: in vivo
# TEST PARAMETERS: male Sprague-Dawley rats, oral gavage 5 mg/kg, 24 h, plasma, read-out: 24 h rat PK (Auc)
Could you please report measured AUC for the items listed next?
Answers are plain numbers, in µM·h.

Could I get AUC for every one of these entries?
1. COC(=O)N[C@H](C(=O)N1[C@@H](C)CC[C@H]1c1nc(-c2ccc(-c3ccc(-c4c[nH]c([C@@H]5CC[C@H](C)N5C(=O)[C@@H](NC(=O)OC)[C@H]5C[C@@H](C)O[C@@H](C)C5)n4)cc3)cc2)c[nH]1)[C@@H]1C[C@@H](C)O[C@@H](C)C1
2. COC(=O)N[C@H](C(=O)N1[C@@H](C)CC[C@H]1c1nc(-c2ccc(-c3ccc(-c4c[nH]c([C@@H]5CC[C@H](C)N5C(=O)[C@@H](NC(=O)OC)C5C[C@@H](C)O[C@H](C)C5)n4)cc3)cc2)c[nH]1)C1C[C@@H](C)O[C@H](C)C1 (some centres unmarked)

Reply:
[1.6, 2.22]

----------
# System: HCV genotype 1b wild type
# ASSAY INFO: HCV replicon assay, genotype 1b wild type
# Type: cell-based
# TEST PARAMETERS: Hepatitis C virus, HCV replicon cells, read-out: EC50 G 1b wild type
ENDPOINT LABEL: EC50 (pM)
Answers are plain numbers, in pM.

COMPOUND	TARGET OF ASSAY	EC50 (pM)
COC(=O)N[C@H](C(=O)N1[C@@H](C)CC[C@H]1c1nc(-c2ccc(-c3ccc(-c4c[nH]c([C@@H]5CC[C@H](C)N5C(=O)[C@@H](NC(=O)OC)C5C[C@@H](C)O[C@H](C)C5)n4)c(C)c3)cc2)c[nH]1)C1C[C@@H](C)O[C@H](C)C1 (stereo partly shown) [Example-3]	HCV genotype 1b wild type	6.41

Please state EC50 for every compound in the list that follows.
1. COC(=O)N[C@H](C(=O)N1CCC[C@H]1c1nc(-c2ccc(-c3ccc(-c4c[nH]c([C@@H]5CCCN5C(=O)[C@@H](NC(=O)OC)C5C[C@@H](C)O[C@H](C)C5)n4)cc3)cc2)c[nH]1)C1C[C@@H](C)O[C@H](C)C1 (stereo partly shown) [Example-6]
2. COC(=O)N[C@H](C(=O)N1[C@@H](C)CC[C@H]1c1nc(-c2ccc(-c3ccc(-c4c[nH]c([C@@H]5CC[C@H](C)N5C(=O)[C@@H](NC(=O)OC)C5C[C@@H](C)O[C@H](C)C5)n4)cc3)cc2)c[nH]1)C1C[C@@H](C)O[C@H](C)C1 (stereo partly shown) [Example-2]
3. COC(=O)N[C@H](C(=O)N1[C@@H](C)CC[C@H]1c1nc(-c2ccc(-c3ccc(-c4c[nH]c([C@@H]5CC[C@H](C)N5C(=O)[C@@H](NC(=O)OC)C5C[C@@H](C)O[C@H](C)C5)n4)c(F)c3)cc2)c[nH]1)C1C[C@@H](C)O[C@H](C)C1 (stereo partly shown) [Example-4]

Reply:
1. 36.7
2. 8.03
3. 4.15

----------
Assignment: determine reported AUC for the given molecules.
# ASSAY INFO: IV and PO single dose pharmacokinetic studies in rat
# Format: in vivo
# TEST PARAMETERS: male Sprague-Dawley rats, oral gavage 5 mg/kg, 24 h, plasma, read-out: 24 h rat PK (Auc)
Give bare numbers, in µM·h.

Illustrative cases are given below, each with its answer.
MOLECULE	VALUE REPORTED
COC(=O)N[C@H](C(=O)N1[C@@H](C)CC[C@H]1c1nc(-c2ccc(-c3ccc(-c4c[nH]c([C@@H]5CC[C@H](C)N5C(=O)[C@@H](NC(=O)OC)C5C[C@@H](C)O[C@H](C)C5)n4)c(C)c3)cc2)c[nH]1)C1C[C@@H](C)O[C@H](C)C1 (stereo partly drawn) [Example-3]	4.49
COC(=O)N[C@H](C(=O)N1CCC[C@H]1c1nc(-c2ccc(-c3ccc(-c4c[nH]c([C@@H]5CCCN5C(=O)[C@@H](NC(=O)OC)C5C[C@@H](C)O[C@H](C)C5)n4)cc3)cc2)c[nH]1)C1C[C@@H](C)O[C@H](C)C1 (stereo partly drawn) [Example-6]	1.36

Now for the molecule whose AUC we want.
Task item: Please list AUC recorded for the molecule COC(=O)N[C@H](C(=O)N1[C@@H](C)CC[C@H]1c1nc(-c2ccc(-c3ccc(-c4c[nH]c([C@@H]5CC[C@H](C)N5C(=O)[C@@H](NC(=O)OC)C5C[C@@H](C)O[C@H](C)C5)n4)c(F)c3)cc2)c[nH]1)C1C[C@@H](C)O[C@H](C)C1 (stereo partly drawn) [Example-4]
Reply: 1.73
